pIC50 overview
protocol summary: Antagonist activity at ER in human MCF7:WS8 cells assessed as inhibition of estradiol-induced cell growth by measuring DNA level after 7 days by fluorescence analysis
pIC50: −log10 of the molar value.

>  <given smiles>
CCOc1ccc2c(c1)CCCC(c1ccccc1)=C2c1ccc(OCCN(C)C)cc1

>  <pIC50>
8.52

$$$$
>  <given smiles>
CNCCOc1ccc(C2=C(c3ccccc3)CCCc3cc(O)ccc32)cc1

>  <pIC50>
8.52

$$$$
